Provenance of the data: patent US5208343A

Test system: muscarinic antagonist sites
Assay: Binding to muscarinic antagonist sites using [^3 H]-quinuclidinyl benzylate (RQNB)
Details: in vitro

MOLECULE | RQNB % Inhib at 10^-6 M, %
CCCN1CCC=C(CCC(=NO)c2ccc(OC)cc2)C1.O=C(O)C(=O)O [2(e)(b)] | 9
CCCN1CC=CC(CCC(=NO)c2ccc(OC)cc2)C1.O=C(O)C(=O)O (stereo not shown) [2(e)(a)] | 6
CCCN1CC=CC(CCC(=NO)c2ccccc2)C1.O=C(O)C(=O)O (stereo not shown) [1(e)(a)] | 27
CCCN1CCC=C(CCC(=NO)c2ccccc2)C1.O=C(O)C(=O)O [1(e)(b)] | 10

----------
IC50 listing for selected molecules.
Target: sigma binding site
Experiment: Sigma binding affinity using [^3 H]-(+)-3-(3'-hydroxyphenyl) N (1'-propyl)piperidine ([^3 H]3PPP)
Details: [^3 H]3PPP radioligand, in vitro

MOLECULE | MEASURE UNIT | IC50
CCCN1CCC=C(CCC(=NO)c2ccccc2)C1.O=C(O)C(=O)O [1(e)(b), oxalate] | nM | 1.99
CCCN1CC=CC(CCC(=NO)c2ccc(OC)cc2)C1.O=C(O)C(=O)O (stereo not shown) [2(e)(a), oxalate] | nM | 6.49
CCCN1CCC=C(CCC(=NO)c2ccc(OC)cc2)C1.O=C(O)C(=O)O [2(e)(b), oxalate] | nM | 2.39
CCCN1CC=CC(CCC(=NO)c2ccccc2)C1.O=C(O)C(=O)O (stereo not shown) [1(e)(a), oxalate] | nM | 2.07

----------
Biological target: dopamine receptors
Experiment: Affinity for dopamine receptors with the dopamine antagonist [^3 H]spiperone (RBSP)
Settings: in vitro
pIC50: −log10 of the molar value.
pIC50 listing for selected compounds.

COMPOUND | ASSAYED SYSTEM | pIC50
CCCN1CCC=C(CCC(=NO)c2ccc(OC)cc2)C1.O=C(O)C(=O)O [2(e)(b), oxalate] | dopamine receptors | < 6.00
CCCN1CCC=C(CCC(=NO)c2ccccc2)C1.O=C(O)C(=O)O [1(e)(b), oxalate] | dopamine receptors | < 6.00
CCCN1CC=CC(CCC(=NO)c2ccccc2)C1.O=C(O)C(=O)O (stereo not shown) [1(e)(a), oxalate] | dopamine receptors | < 6.00
CCCN1CC=CC(CCC(=NO)c2ccc(OC)cc2)C1.O=C(O)C(=O)O (stereo not shown) [2(e)(a), oxalate] | dopamine receptors | < 6.00
